# System: ATP;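 note: ATP exposure 15 min at 22 °C before imaging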
# assayRemarks: switch fluorescence ratio, 500 uM ATP over buffer (Cy3 cluster intensity, sum of 5 cycles each) (fold (ratio)); higher = stronger signal-on switching upon ATP binding; sequences stand for … in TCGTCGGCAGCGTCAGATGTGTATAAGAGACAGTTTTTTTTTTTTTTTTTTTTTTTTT…TC
# assaySetup: aptamer strand: ATP DNA aptamer (quencher-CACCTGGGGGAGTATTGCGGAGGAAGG + anchor), 100 nM annealed; ATP concentration: 500 uM
reportedMetric: switch fluorescence ratio
# respond with the number and nothing more

If you can, please state the reported switch fluorescence ratio value of `CAGTTCTCTA` .
0.981

If you can, please state the reported switch fluorescence ratio value of `TTTGTCTTGG` .
0.972

If you can, please state the reported switch fluorescence ratio value of `TGAAGGGAAA` .
1

If you can, please state the reported switch fluorescence ratio value of `TCTGGTCGCT` .
1.02

If you can, please state the reported switch fluorescence ratio value of `TCATTATTCG` .
0.985

If you can, please state the reported switch fluorescence ratio value of `GGGGGAGGGA` .
0.997

If you can, please state the reported switch fluorescence ratio value of `TTGGTAAATG` .
0.999

If you can, please state the reported switch fluorescence ratio value of `TTGGGTAATG` .
1.01

If you can, please state the reported switch fluorescence ratio value of `GGATATATTG` .
1.02

----------
# Test system: ATP;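 note: ATP exposure 15 min at 22 °C before imaging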
# assayRemarks: switch fluorescence ratio, 500 uM ATP over buffer (Cy3 cluster intensity, sum of 5 cycles each) (fold (ratio)); higher = stronger signal-on switching upon ATP binding; sequences stand for … in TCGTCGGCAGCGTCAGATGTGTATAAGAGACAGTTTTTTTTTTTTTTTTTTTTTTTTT…TC
# assaySetup: aptamer strand: ATP DNA aptamer (quencher-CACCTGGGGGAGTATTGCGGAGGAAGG + anchor), 100 nM annealed; ATP concentration: 500 uM
reportedMetric: switch fluorescence ratio
# respond with the number and nothing more

Use the examples below as a reference point.
# sequenceText, studySystem, switch fluorescence ratio
data = [
    ("GGCATTCGTG", "ATP", 0.974),
    ("TAATGGGTGG", "ATP", 1.02),
    ("CTTTTATTGG", "ATP", 1),
    ("GGATAGGATG", "ATP", 0.974),
    ("ATTTGTATTT", "ATP", 0.992),
    ("TTGGAAGTGG", "ATP", 1),
    ("TATCGGCTGT", "ATP", 1.01),
    ("TTCTAGCTTG", "ATP", 1.01),
    ("GGATTTTGGG", "ATP", 1.01),
    ("TATGAGGGTT", "ATP", 1),
]

If you can, please state the reported switch fluorescence ratio value of `TAATTTCTAA` .
0.995

If you can, please state the reported switch fluorescence ratio value of `AATAGATTGC` .
1

If you can, please state the reported switch fluorescence ratio value of `GCGTTGCAGG` .
1.02

----------
The sequences listed here are annotated with their switch fluorescence ratio.
# Test system: ATP;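 note: ATP exposure 15 min at 22 °C before imaging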
# assayRemarks: switch fluorescence ratio, 500 uM ATP over buffer (Cy3 cluster intensity, sum of 5 cycles each) (fold (ratio)); higher = stronger signal-on switching upon ATP binding; sequences stand for … in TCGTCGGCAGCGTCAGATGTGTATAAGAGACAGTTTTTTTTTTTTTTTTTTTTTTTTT…TC
# assaySetup: aptamer strand: ATP DNA aptamer (quencher-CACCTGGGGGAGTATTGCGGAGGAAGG + anchor), 100 nM annealed; ATP concentration: 500 uM
# respond with the number and nothing more

Use the examples below as a reference point.
# sequenceText, studySystem, switch fluorescence ratio
measured = [
    ("AAGGGAGGCT", "ATP", 1.01),
    ("AGGGTGAATG", "ATP", 1),
    ("GAAGGAATGT", "ATP", 1),
    ("TTGGGTATAT", "ATP", 0.979),
    ("GACGGCGTTC", "ATP", 1.01),
    ("TGTATGGCGC", "ATP", 1.01),
    ("GGGGGTTAAG", "ATP", 0.988),
    ("CATAGTATGT", "ATP", 0.973),
]

If you can, please state the reported switch fluorescence ratio value of `CGTCGGGTGG` .
0.988

If you can, please state the reported switch fluorescence ratio value of `TTCTTGCTGG` .
0.997

If you can, please state the reported switch fluorescence ratio value of `TAAGAAAAGT` .
0.975

If you can, please state the reported switch fluorescence ratio value of `GTTTTTTAAG` .
0.988

----------
The sequences listed here are annotated with their switch fluorescence ratio.
# Tested on: ATP;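 note: ATP exposure 15 min at 22 °C before imaging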
# assayRemarks: switch fluorescence ratio, 500 uM ATP over buffer (Cy3 cluster intensity, sum of 5 cycles each) (fold (ratio)); higher = stronger signal-on switching upon ATP binding; sequences stand for … in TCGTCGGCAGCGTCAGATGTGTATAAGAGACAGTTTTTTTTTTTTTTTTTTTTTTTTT…TC
# assaySetup: aptamer strand: ATP DNA aptamer (quencher-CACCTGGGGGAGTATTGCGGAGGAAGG + anchor), 100 nM annealed; ATP concentration: 500 uM
# respond with the number and nothing more

Use the examples below as a reference point.
# sequenceText, switch fluorescence ratio
measured = [
    ("CGTATGAAGC", 0.972),
    ("TTTGCTGGTA", 1.01),
]

If you can, please state the reported switch fluorescence ratio value of `ATTAGTGTCG` .
1.01

If you can, please state the reported switch fluorescence ratio value of `GTCAATTGAT` .
0.992

If you can, please state the reported switch fluorescence ratio value of `AGGCGGTGTG` .
0.973

If you can, please state the reported switch fluorescence ratio value of `CAACTAAAAA` .
1.01

If you can, please state the reported switch fluorescence ratio value of `ATATAAAAAG` .
1.02

----------
# System: ATP;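 note: ATP exposure 15 min at 22 °C before imaging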
# assayRemarks: switch fluorescence ratio, 500 uM ATP over buffer (Cy3 cluster intensity, sum of 5 cycles each) (fold (ratio)); higher = stronger signal-on switching upon ATP binding; sequences stand for … in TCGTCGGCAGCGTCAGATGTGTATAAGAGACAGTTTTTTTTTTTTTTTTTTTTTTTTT…TC
# assaySetup: aptamer strand: ATP DNA aptamer (quencher-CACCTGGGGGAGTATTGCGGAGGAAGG + anchor), 100 nM annealed; ATP concentration: 500 uM
reportedMetric: switch fluorescence ratio
# respond with the number and nothing more

# sequenceText, reportedMetric, measured
data = [
    ("CTTAGGGGCG", "switch fluorescence ratio", 0.976),
    ("ATGGGGGGTA", "switch fluorescence ratio", 0.986),
    ("TTTTAAAGTC", "switch fluorescence ratio", 1.02),
]

If you can, please state the reported switch fluorescence ratio value of `ATGATCCGTT` .
1

If you can, please state the reported switch fluorescence ratio value of `ATGGGGGGGT` .
0.999

----------
# Tested on: ATP;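 note: ATP exposure 15 min at 22 °C before imaging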
# assayRemarks: switch fluorescence ratio, 500 uM ATP over buffer (Cy3 cluster intensity, sum of 5 cycles each) (fold (ratio)); higher = stronger signal-on switching upon ATP binding; sequences stand for … in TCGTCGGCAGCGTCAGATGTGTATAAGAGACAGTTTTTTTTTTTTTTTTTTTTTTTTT…TC
# assaySetup: aptamer strand: ATP DNA aptamer (quencher-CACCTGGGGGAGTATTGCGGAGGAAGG + anchor), 100 nM annealed; ATP concentration: 500 uM
The sequences listed here are annotated with their switch fluorescence ratio.
# respond with the number and nothing more

Use the examples below as a reference point.
# sequenceText, studySystem, measured
data = [
    ("TAAAGAAAAA", "ATP", 1.02),
    ("GCCAATGATC", "ATP", 1.01),
    ("AATGTGGTCG", "ATP", 0.983),
    ("GGGGCGTTAG", "ATP", 1),
    ("CAAGGAAGAT", "ATP", 1.02),
    ("TTTGACTGAG", "ATP", 0.997),
]

Note: attention shifts to another entry.
If you can, please state the reported switch fluorescence ratio value of `AAAGTGTTCG` .
0.98

----------
# Test system: ATP;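 note: ATP exposure 15 min at 22 °C before imaging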
# assayRemarks: switch fluorescence ratio, 500 uM ATP over buffer (Cy3 cluster intensity, sum of 5 cycles each) (fold (ratio)); higher = stronger signal-on switching upon ATP binding; sequences stand for … in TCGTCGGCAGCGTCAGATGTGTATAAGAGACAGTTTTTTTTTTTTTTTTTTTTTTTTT…TC
# assaySetup: aptamer strand: ATP DNA aptamer (quencher-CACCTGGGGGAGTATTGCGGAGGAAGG + anchor), 100 nM annealed; ATP concentration: 500 uM
reportedMetric: switch fluorescence ratio
# respond with the number and nothing more

Use the examples below as a reference point.
# sequenceText, studySystem, switch fluorescence ratio
rows = [
    ("ATAATGTCGA", "ATP", 1.02),
    ("GAATACTTCG", "ATP", 1.07),
    ("TAAAAAACCG", "ATP", 1.03),
    ("ATCGAGGCGT", "ATP", 1.01),
]

If you can, please state the reported switch fluorescence ratio value of `AAAGGATTTG` .
0.97

Provenance of the data: the supplement of paper PMC10126150
